Data origin, for the record: ChEMBL document CHEMBL1134580

Tested on: Rattus norvegicus
Test: Changes in diastolic Blood pressure following iv administration at (4.12 umol/kg) anesthetized rats
Assay type: functional
Would you kindly list Blood pressure for each of these compounds?
Your answer should be a plain number; it is taken to be in mmHg.

[ask] Tell me the measured Blood pressure of "COc1ccc(C(=O)NCCCC/N=C(\N)NCC=C(C)C)cc1.CS(=O)(=O)O" , please.
[reply] -31

[ask] Tell me the measured Blood pressure of "COc1ccc(/C=C/C(=O)NCCCN=C(N)N)cc1OC.CS(=O)(=O)O" , please.
[reply] -28

[ask] Tell me the measured Blood pressure of "COc1ccc(C=CC(=O)NCCCCN=C(N)N)cc1OC" , please.
[reply] -10

[ask] Tell me the measured Blood pressure of "COc1ccc(/C=C/C(=O)NCCN=C(N)N)cc1OC.CS(=O)(=O)O" , please.
[reply] -33

[ask] Tell me the measured Blood pressure of "COc1ccc(/C=C/C(=O)NCCCCCN=C(N)N)cc1OC.CS(=O)(=O)O" , please.
[reply] -27
